# experimental-system: human μ-opiate receptor (Homo sapiens, UniProt P35372)
# Sequence (P35372 whole entry): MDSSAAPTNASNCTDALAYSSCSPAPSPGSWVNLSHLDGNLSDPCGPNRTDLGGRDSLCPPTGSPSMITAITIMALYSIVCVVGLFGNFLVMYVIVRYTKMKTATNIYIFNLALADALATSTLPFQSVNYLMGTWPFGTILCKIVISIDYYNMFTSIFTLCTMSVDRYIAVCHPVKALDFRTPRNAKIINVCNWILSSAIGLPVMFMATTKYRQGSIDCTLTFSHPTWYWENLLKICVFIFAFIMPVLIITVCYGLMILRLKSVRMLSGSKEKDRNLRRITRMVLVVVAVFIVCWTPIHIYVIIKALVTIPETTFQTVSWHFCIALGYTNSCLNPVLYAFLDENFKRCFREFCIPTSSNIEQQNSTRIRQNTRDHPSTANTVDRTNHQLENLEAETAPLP
metric: pKi
One number for each entry, as −log10 of the molar value.

Consider the compound shown here: c1ccc(CC2(N3CCOCC3)CCC3(CC2)OCCc2c3[nH]c3ncccc23)cc1 (stereo not shown) What is its recorded pKi?
5.54
